Taken from ChEMBL document CHEMBL1201862.

System: RXF 631
Experiment: NCI tumour cell line growth inhibition, 48 h
Activity calls are given as the source filed them. Cut-off read from the data, not from the text of the source: active = GI50 up to about 1.1 µM and inactive = higher.

>  <COMPOUND>
O=C1/C(=C/c2ccccc2)CNC/C1=C\c1ccccc1

>  <GI50>
2.91 µM (inactive)

$$$$
>  <COMPOUND>
COC(=O)NC1C(C)OC(OC2C/C=C(/C)C3C=CC4C(OC5CC(OC6CC(O)C(OC7CC(O)C(OC)C(C)O7)C(C)O6)C(O)C(C)O5)C(C)CC(C)C4C3(C)C(=O)C3=C(O)C4(CC(C)C(CO)=CC4/C=C\2C)OC3=O)CC1(C)[N+](=O)[O-] (stereo unspecified)

>  <GI50>
21 µM (inactive)

$$$$
>  <COMPOUND>
Cc1nc(-n2nc(-c3ccccc3)cc2-c2ccccc2)sc1C(=O)/C=C/c1ccc([N+](=O)[O-])cc1

>  <GI50>
23 µM (inactive)

$$$$
>  <COMPOUND>
O=C(O)CCC1c2[nH]c3ccccc3c2CCN1Cc1ccccc1 (stereo unspecified)

>  <GI50>
> 100 µM (inactive)

$$$$
>  <COMPOUND>
Cc1ccc(NC(=O)C(=O)CC(=O)C2CCOC2=O)c(C)c1 (stereo unspecified)

>  <GI50>
> 100 µM (inactive)

$$$$
>  <COMPOUND>
COC(=O)CCC(NC(=S)N/N=C/c1cccs1)C(=O)OC (stereo unspecified)

>  <GI50>
> 100 µM (inactive)

$$$$

----------
Test system: BT-549
Experiment: NCI tumour cell line growth inhibition, 48 h
Activity calls are given as the source filed them. Cut-off read from the data, not from the text of the source: active = GI50 up to about 1.1 µM and inactive = higher.
Outcomes: active, inactive

>  <COMPOUND>
OCCn1cnc2c(SCc3ccccc3)ncnc21

>  <QUALITATIVE LABEL>
inactive

$$$$
>  <COMPOUND>
CC(C)(C)OC(=O)[C@@H]1CCC(=O)N1C1(c2ccccc2)c2ccccc2-c2ccccc21

>  <QUALITATIVE LABEL>
inactive

$$$$
>  <COMPOUND>
CCN(CC)C(=S)SS(=O)(=O)c1ccccc1[N+](=O)[O-]

>  <QUALITATIVE LABEL>
inactive

$$$$
>  <COMPOUND>
CN1CCc2[nH]nc(-c3n[nH]c4c3CN(C)CC4)c2C1

>  <QUALITATIVE LABEL>
inactive

$$$$
>  <COMPOUND>
CCCCNC(=S)Nc1nc(C(=O)NNS(=O)(=O)c2ccccc2)cs1

>  <QUALITATIVE LABEL>
inactive

$$$$
>  <COMPOUND>
NC(=O)NC(=O)c1cccc(CNc2ccc(C(=O)N[C@@H](CCC(=O)O)C(=O)O)cc2)n1

>  <QUALITATIVE LABEL>
inactive

$$$$
>  <COMPOUND>
CC(Nc1cc(Cl)cc(Cl)c1)c1ccncc1 (stereo unspecified)

>  <QUALITATIVE LABEL>
inactive

$$$$
>  <COMPOUND>
CCC(CCCN)Nc1cc(OC)cc2cccnc12 (stereo unspecified)

>  <QUALITATIVE LABEL>
inactive

$$$$
>  <COMPOUND>
O=c1[nH]c2ccc([N+](=O)[O-])c(Cl)c2c2ccccc12

>  <QUALITATIVE LABEL>
inactive

$$$$
>  <COMPOUND>
COC(=O)C1=COC(OC2OC(CO)C(O)C(O)C2O)C2C3CN4CCc5c([nH]c6ccccc56)C4(CC12)O3 (stereo unspecified)

>  <QUALITATIVE LABEL>
inactive

$$$$
>  <COMPOUND>
Cn1c(-c2ccccc2)c2cc3nc4ccccc4nc3cc2c1-c1ccccc1

>  <QUALITATIVE LABEL>
inactive

$$$$
>  <COMPOUND>
CCOC(=O)/C(=C\NC(C)(C)CO)c1nc2ccccc2[nH]1

>  <QUALITATIVE LABEL>
inactive

$$$$
>  <COMPOUND>
O=C(CC(=O)N1N=C(N(c2ccccc2)c2ccccc2)CC1c1ccccc1)Nc1ccc(Cl)cc1 (stereo unspecified)

>  <QUALITATIVE LABEL>
inactive

$$$$
>  <COMPOUND>
CC(=O)N1C(C(=O)NC2CCCCC2)CSC1c1ccccc1 (stereo unspecified)

>  <QUALITATIVE LABEL>
inactive

$$$$
>  <COMPOUND>
N#Cc1nc(COCCOCc2ccccc2)oc1N

>  <QUALITATIVE LABEL>
inactive

$$$$
>  <COMPOUND>
CCCC(=O)OC[n+]1cccc(-c2c(COC(=O)NC(C)C)c(COC(=O)NC(C)C)c3n2CCC3)c1

>  <QUALITATIVE LABEL>
inactive

$$$$
>  <COMPOUND>
O=C1c2cc(Cl)ccc2N=C(NC2CCCC2)C2CSCN12 (stereo unspecified)

>  <QUALITATIVE LABEL>
inactive

$$$$
>  <COMPOUND>
CC(C)(C)NNc1c([N+](=O)[O-])cnn(-c2ccccc2)c1=O

>  <QUALITATIVE LABEL>
inactive

$$$$
>  <COMPOUND>
CCN(CCCl)c1cc(CN(C)C)cc(NC(=O)c2ccc(C(=O)Nc3cc(CN(C)C)cc(N(CC)CCCl)c3)cc2)c1

>  <QUALITATIVE LABEL>
active

$$$$
>  <COMPOUND>
N#Cc1c(O)nc2[nH]nc(/N=N\c3c(O)ccc4ccccc34)c2c1-c1ccc(Cl)cc1

>  <QUALITATIVE LABEL>
active

$$$$
>  <COMPOUND>
Nc1ccc(S(=O)(=O)c2ccc(/N=[N+](\[O-])c3ccc(S(=O)(=O)c4ccc(N)cc4)cc3)cc2)cc1

>  <QUALITATIVE LABEL>
inactive

$$$$

----------
System: TK-10
Assay: NCI tumour cell line growth inhibition, 48 h
Activity calls are given as the source filed them. Cut-off read from the data, not from the text of the source: active = GI50 up to about 1.1 µM and inactive = higher.
Below is a list of entries, each paired with its recorded GI50 value.

>  <COMPOUND>
COc1cc(/C=N/N=C2NCCN2)ccc1O

>  <TGT>
TK-10

>  <GI50>
> 100 µM (inactive)

$$$$
>  <COMPOUND>
C=C(Br)CNC(=O)CCC(=O)NCC(=C)Br

>  <TGT>
TK-10

>  <GI50>
> 100 µM (inactive)

$$$$
>  <COMPOUND>
c1ccc2c(c1)CN1CCCC1CN2 (stereo not given)

>  <TGT>
TK-10

>  <GI50>
> 100 µM (inactive)

$$$$
>  <COMPOUND>
O=C1OC(C(O)CO)C(O)=C1O (stereo not given)

>  <TGT>
TK-10

>  <GI50>
> 100 µM (inactive)

$$$$
>  <COMPOUND>
COc1ccc2oc(C(=O)O)c3c2c1CCC3

>  <TGT>
TK-10

>  <GI50>
> 100 µM (inactive)

$$$$
>  <COMPOUND>
CCCC(C)C[C@@H](C)CC(C)/C=C(\C)c1oc(=O)c(C)c(O)c1C.CC[C@@H](C)C[C@@H](C)C[C@@H](C)/C=C(\C)c1oc(=O)c(C)c(O)c1C (stereo not given in full)

>  <TGT>
TK-10

>  <GI50>
19.5 µM (inactive)

$$$$
>  <COMPOUND>
COc1cc(C(O)C(=O)c2cnc3cc([N+](=O)[O-])ccc3n2)ccc1O (stereo not given)

>  <TGT>
TK-10

>  <GI50>
> 100 µM (inactive)

$$$$
>  <COMPOUND>
C=C(C)C12OC1[C@@]1(C)C(=CC2=O)CCC(O)[C@@H]1C (stereo not given in full)

>  <TGT>
TK-10

>  <GI50>
3.73 µM (inactive)

$$$$
>  <COMPOUND>
CCCCCCCCNC(=O)C1=C(C)NC(C)=C(C(=O)NCCCCCCCC)C1

>  <TGT>
TK-10

>  <GI50>
> 100 µM (inactive)

$$$$
>  <COMPOUND>
CC1=C(C(=O)Nc2cc(=O)n(C)c(=O)n2C)C(c2cccc([N+](=O)[O-])c2)C(C(=O)Nc2cc(=O)n(C)c(=O)n2C)=C(C)N1

>  <TGT>
TK-10

>  <GI50>
> 100 µM (inactive)

$$$$

----------
Test system: Hs-578T
Experiment: NCI tumour cell line growth inhibition, 48 h
Activity calls are given as the source filed them. No stated cut-off is given here; in the data, active = GI50 up to about 1.1 µM and inactive = higher.
PROPERTY NAME: GI50

>  <MOLECULE>
COc1cc(C2S/C(=C/c3ccccc3)C(=O)N2c2ccc(NC(C)=O)cc2)cc(OC)c1OC (stereo unspecified)

>  <RESULT>
21.2 µM (inactive)

$$$$
>  <MOLECULE>
CCOC(=O)CCC(NC(=O)c1ccc(Nc2cnc3ccc(C(F)(F)F)cc3n2)cc1)C(=O)OCC (stereo unspecified)

>  <RESULT>
6.79 µM (inactive)

$$$$
>  <MOLECULE>
COc1ccc(P2(=S)Oc3ccc(C(c4ccccc4)(c4ccccc4)c4ccccc4)cc3O2)cc1 (stereo unspecified)

>  <RESULT>
21.8 µM (inactive)

$$$$
>  <MOLECULE>
COc1ccc(/N=N/C(=N\c2ccc(F)cc2)c2ccc(N(CCC#N)CCC#N)cc2)cc1

>  <RESULT>
27.4 µM (inactive)

$$$$
>  <MOLECULE>
COc1ccc(C2=C(N)c3ccccc3C2=O)cc1

>  <RESULT>
27.5 µM (inactive)

$$$$
>  <MOLECULE>
CCc1nc(N)nc(N)c1-c1ccc2nn(-c3ccccc3)[n+]([O-])c2c1

>  <RESULT>
17.9 µM (inactive)

$$$$
>  <MOLECULE>
N#Cc1c(N)oc(-c2cccc([N+](=O)[O-])c2)c1C#N

>  <RESULT>
32.8 µM (inactive)

$$$$
>  <MOLECULE>
O=C(c1c2c(cc3c1CC1(Cc4cc5c(cc4C1)CCCC5)C3)CCCC2)C(Br)Br

>  <RESULT>
30.8 µM (inactive)

$$$$
>  <MOLECULE>
CN(/N=C/c1ccccn1)C1=NCCCCN1

>  <RESULT>
> 100 µM (inactive)

$$$$
>  <MOLECULE>
CCOC(=O)[C@@H](Cc1ccc(CCl)cc1)NC(C)=O

>  <RESULT>
25.5 µM (inactive)

$$$$
>  <MOLECULE>
O=S(=O)(c1cc(Cl)ccc1Cl)n1ccnc1

>  <RESULT>
51.4 µM (inactive)

$$$$
>  <MOLECULE>
COc1cc(OC)c(C2(c3c(OC(C)C)c(=O)c3=O)SCCCS2)cc1OC

>  <RESULT>
> 100 µM (inactive)

$$$$
>  <MOLECULE>
Cc1cccc(NC(=S)Nc2ccc([N+](=O)[O-])cc2)n1

>  <RESULT>
> 100 µM (inactive)

$$$$
>  <MOLECULE>
Cc1ncc([N+](=O)[O-])n1CC(O)Cn1ccnc1[N+](=O)[O-] (stereo unspecified)

>  <RESULT>
> 100 µM (inactive)

$$$$
>  <MOLECULE>
COc1cc2c3c(cc(Cl)nc3c1OC)C(O)(CC(=O)c1ccccc1)C(=O)N2 (stereo unspecified)

>  <RESULT>
21.7 µM (inactive)

$$$$
>  <MOLECULE>
NC(=O)SCCC(N)C(=O)O (stereo unspecified)

>  <RESULT>
> 100 µM (inactive)

$$$$
>  <MOLECULE>
O=C(/C=C/c1ccc(-c2ccccc2[N+](=O)[O-])o1)NCc1ccc(C(=O)NCCc2ccccc2)cc1

>  <RESULT>
> 100 µM (inactive)

$$$$
>  <MOLECULE>
CC[C@H]1C=CCC[C@@]2(C[C@@H]3CC[C@H]4[C@@H](C(=O)OCCCCCCCCCCCCCCCC(=O)N(CCCNC(C)=O)C[C@H](CCNC(C)=O)OC(C)=O)[C@@]5(CCC[C@@H](C)O5)NC(=[N+]34)N2)O1

>  <RESULT>
1.93 µM (inactive)

$$$$
>  <MOLECULE>
COc1ccc(C(CC2(c3ccc(OC)cc3)SCCCS2)NC(C)=O)cc1 (stereo unspecified)

>  <RESULT>
86.7 µM (inactive)

$$$$
>  <MOLECULE>
CC(Nc1cc(Cl)cc(Cl)c1)c1ccncc1 (stereo unspecified)

>  <RESULT>
35.2 µM (inactive)

$$$$
>  <MOLECULE>
CC(=O)Nc1ccc(-c2nc3cc(Cl)ccc3o2)cc1

>  <RESULT>
> 50 µM (inactive)

$$$$
>  <MOLECULE>
O=C(C=P(c1ccccc1)(c1ccccc1)c1ccccc1)c1ccc(-c2cccc([N+](=O)[O-])c2)s1

>  <RESULT>
52.5 µM (inactive)

$$$$
>  <MOLECULE>
COC(=O)C1(Cc2ccc(C)cc2)Cc2c(C)cccc2C1=O (stereo unspecified)

>  <RESULT>
15.9 µM (inactive)

$$$$
>  <MOLECULE>
O=C1c2cc3c(cc2NC(c2ccccc2F)C1O)OCO3 (stereo unspecified)

>  <RESULT>
18.1 µM (inactive)

$$$$
>  <MOLECULE>
Cn1c(-c2ccccc2)c2cc3nc4ccccc4nc3cc2c1-c1ccccc1

>  <RESULT>
10.6 µM (inactive)

$$$$
>  <MOLECULE>
CC1(C)[C@H]2CC[C@](C)(C2)[C@]1(S)Cc1ccccn1

>  <RESULT>
57.8 µM (inactive)

$$$$
>  <MOLECULE>
CC(C)=CCNc1ncnc2[nH]cnc12

>  <RESULT>
> 100 µM (inactive)

$$$$
>  <MOLECULE>
OCCOCCN1CCN(CCCN2c3ccccc3Sc3ccc(C(F)(F)F)cc32)CC1

>  <RESULT>
11.9 µM (inactive)

$$$$
>  <MOLECULE>
COc1cc(OC)cc(-n2c(N)c(C#N)c3ccc([N+](=O)[O-])cc3c2=O)c1

>  <RESULT>
24.2 µM (inactive)

$$$$
>  <MOLECULE>
CCCC(=O)OC[n+]1cccc(-c2c(COC(=O)NC(C)C)c(COC(=O)NC(C)C)c3n2CCC3)c1

>  <RESULT>
> 100 µM (inactive)

$$$$
>  <MOLECULE>
CC(=NNC(=S)Nc1ccc(C)cc1)c1cccc(C(C)=NNC(=S)Nc2ccc(C)cc2)n1

>  <RESULT>
41.1 µM (inactive)

$$$$
>  <MOLECULE>
O=C1Nc2ccccc2/C1=N/N=C1NCCCCN1

>  <RESULT>
> 100 µM (inactive)

$$$$
>  <MOLECULE>
COCC12CCC(OC)C34C5CC6(O)C(OC)C=C(C5C6OC(=O)c5ccccc5)C(C(OC)C13)C4N(C)C2 (stereo unspecified)

>  <RESULT>
27.1 µM (inactive)

$$$$
>  <MOLECULE>
CCOP(=O)(OCC)C(F)(F)Cc1cnc(C)c2c1COC(C)(C)O2

>  <RESULT>
> 10 µM (inactive)

$$$$
>  <MOLECULE>
CN1CCc2[nH]nc(-c3n[nH]c4c3CN(C)CC4)c2C1

>  <RESULT>
> 100 µM (inactive)

$$$$
>  <MOLECULE>
CCOC(=O)c1c(N)n(-c2ccccc2)c(=O)n(-c2ccccc2)c1=O

>  <RESULT>
> 100 µM (inactive)

$$$$
